B1: HDV Ribozyme (parent)
chain: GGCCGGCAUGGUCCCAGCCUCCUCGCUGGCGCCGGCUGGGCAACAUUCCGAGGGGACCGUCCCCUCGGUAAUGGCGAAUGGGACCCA

# Variants of: B1
# run.description: self-cleavage, relative activity (ratio to wild type); higher = more cleavage; co-transcriptional
Group membership follows self-cleavage per the scheme one = under 0.3, two = from 0.3 up to 0.4, three = 0.4 and over

Here are 10 variants together with their reported answers.
* G1A C48U | one
* A8U C41A | three
* G2U C62G | one
* U9A C22A | two
* C30U C49G | two
* G73U G82U | one
* A51C G80A | two
* C57G G68C | three
* C7U C22G | one
* U12C G67U | two

Which bin should I file C61A G81A under?
two

Hi there! Could you help me figure out the category for C48G G74U please?
three
